System: M14 melanoma
Assay: NCI-60 one-dose screen, 48 h (100 = growth as untreated, 0 = no growth, -100 = all killed)
Conditions: 10 µM unless noted
This is part of a sample that, as a whole, favours compounds with a hit. Of some 83,000 tested, about 20% had one in any assay.
resultType: growth (%)

{"columns": ["compound", "targetOrTestSystem", "unitAbbreviation", "assayResult"],
 "data": [
  ["COc1ccc(/C=N\\NC(=O)c2cc(-c3ccc(Br)cc3)n(-c3ccc(S(N)(=O)=O)cc3)n2)cc1", "M14 melanoma", "%", 30.9],
  ["Cc1ccc(C(=O)C2=C(O)C(=O)N(Cc3cccnc3)C2c2ccccc2F)o1 (stereo not given)", "M14 melanoma", "%", 101],
  ["COC(=O)[C@H](CSC)N(C)C(=O)[C@@H]1CSSC[C@@H](NC(=O)c2nc3ccccc3cc2O)C(=O)NCC(=O)N1C", "M14 melanoma", "%", 46.2],
  ["c1c[nH]c(CNC2CCCCC2)c1", "M14 melanoma", "%", 104],
  ["CC(C)(C)C(CCc1ccc(Cl)cc1)N1CCN(C2CCCCC2)CC1 (stereo not given)", "M14 melanoma", "%", 31.9]
]}

This collection of values is drawn from PubChem BioAssay (NCI).
